- Tested on: HCT-116 colon
- test-details: NCI-60 one-dose screen, 48 h (100 = growth as untreated, 0 = no growth, -100 = all killed)
- condition-summary: 10 µM
The panel holds about 83,000 compounds, 20% with a hit somewhere; the sample as a whole holds those more often.
measured-quantity: growth (%)
Please state the figure in %; there is no need to write the unit.

Consider the reported growth for these molecules:
molecule	result-units	growth
N#Cc1c(-c2ccccc2)nc(SCC(=O)N2CCOCC2)[nH]c1=O	%	99.9
COc1cc2nc(Sc3sc(N)nc3C)n(-c3ccc(Oc4ccccc4)cc3)c(=O)c2cc1OC	%	47.4
NCCNc1ccc2cc(-c3nc4ccccc4[nH]3)c(=O)oc2c1	%	93.9
Nc1cc(O)cc(O)c1	%	95.8
O=[N+]([O-])c1ccc(-c2nc(Cl)c3c(n2)CCCC3)o1	%	55.2

Measured growth, COc1ccc(C2C=C(c3ccc(Cl)c(Cl)c3)N=C3SC(C)=CN32)cc1OC (stereo unspecified) : 48.8
